Entries and their growth inhibition values follow.
test: NCI Yeast Anticancer Drug Screen. Data for the rad50 strain (AID 155);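 note: 0% = growth of vehicle-only cultures of the same strain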; conditions: S. cerevisiae rad50 strain growth inhibition; at 50.0 µM; hits give high values
This is part of a sample that, as a whole, favours compounds with a hit. Of some 79,000 tested, about 15% had one in any assay.
Answer in %, number only, no unit symbol.

Would you please look over these solved cases?
>>> measurement("NC(=O)NC(=O)/C=C/C(=O)O")
3.75
>>> measurement("O=S1(=O)C=C(N2CCCCC2)c2ccccc21")
2.65
>>> measurement("CC(CN(C)C)Oc1ccc2c(c1)C(=O)C(C)C2 (configuration not stated)")
-25.6

Asked: Could you tell me which growth inhibition is on file for O=[N+]([O-])c1cccc(NC(c2ccccc2)S(=O)(=O)O)c1 (configuration not stated) ?
Given back: -5.15

Asked: Same read-out for COc1ccc(C2CC(c3cc(C)ccc3O)=NC(N)=N2)cc1 (configuration not stated) ?
Given back: 19.6

Asked: Same read-out for O=C(O)COc1ccccc1/C=C1/SC(=S)N(c2ccccc2)C1=O ?
Given back: -1.4

* * *

Experiment: NCI Yeast Anticancer Drug Screen. Data for the sgs1 mgt1 strain (AID 161);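 note: 0% = growth of cultures given vehicle only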
Conditions: S. cerevisiae sgs1 mgt1 strain, at 50.0 µM, hits give high values
Description: Growth inhibition of yeast strains with defined genetic alterations is measured as a screen for potential anti-cancer activity. Selected strains with alterations in DNA damage repair or cell cycle control were exposed to compounds and growth inhibition was measured relative to vehicle treated controls. The strain used in this assay is sgs1 mgt1
This is part of a sample that, as a whole, favours compounds with a hit. Of some 79,000 tested, about 15% had one in any assay. Active and inactive are the calls of the source. Cut-off read from the data, not from the text of the source: active = growth inhibition above about 70%; inactive = the rest. *1 amine or outer side, *2 acyl side, *3 side chain or, on linkers, in order; H or OH if unused. Where a SMILES comes first, the peptide text is derived from it. Bridges are numbered along the chain shown (N, C = ends). Roman numbers before positions name the chains, in order. [ ]: non-standard residue; d: D form. Actinocin(1to9) = Cc1c2oc3c(C)ccc(C(=O)[*:2])c3nc-2c(C(=O)[*:1])c(N)c1=O; NMeV = CN[CH](C(=O)O)C(C)C; Aze = O=C(O)[CH]1CCN1; Sar = CNCC(=O)O
quantity: growth inhibition

>>> measurement("Cc1c2oc3c(C)ccc(C(=O)NC4C(=O)NC(C(C)C)C(=O)N5CCCC5C(=O)N(C)CC(=O)N(C)C(C(C)C)C(=O)OC4C)c3nc-2c(C(=O)NC2C(=O)NC(C(C)C)C(=O)N3CCC3C(=O)N(C)CC(=O)N(C)C(C(C)C)C(=O)OC2C)c(N)c1=O (configuration not stated) (I: TV[Aze][Sar][NMeV] / II: TVP[Sar][NMeV]; ester I:1-I:C, II:1-II:C; linker I:N-II:N via Actinocin(1to9); configuration not given here)")
"92.5% (active)"
>>> measurement("CCN(CC)CCNC(=O)c1cn2c(ccc3sc4ccccc4c(=O)c32)n1")
"48.7% (inactive)"
>>> measurement("O=c1c2c(sc3ccccc13)CCC2")
"-1.55% (inactive)"
>>> measurement("COc1ccc2c(c1)[n+]([O-])c(/C(C)=N/NC(=O)c1ccccc1O)c(C)[n+]2[O-]")
"9.45% (inactive)"
>>> measurement("COc1ccccc1NC(=O)C1=C(C)NC(C)=C(C(=O)Nc2ccccc2OC)C1c1ccc(N(C)C)cc1")
"61.4% (inactive)"
>>> measurement("Oc1cc(O)c(Cl)cc1Cl")
"-22.8% (inactive)"

Now look at this one.
Asked: Could you tell me which growth inhibition is on file for CC(=O)c1ccccn1 ?
Given back: -13.8% (inactive)

* * *

assay: NCI Yeast Anticancer Drug Screen. Data for the mec2-1 strain (AID 157); conditions: S. cerevisiae mec2-1 strain, at 50.0 µM, hits give high values
Compounds without any hit were thinned out: in the full panel of roughly 79,000, 15% have a hit.
Entries and their growth inhibition values follow.
Answer in %, number only, no unit symbol.

Would you please look over these solved cases?
>>> measurement("Cc1ccc(-c2ccc(C)cc2)cc1")
-38
>>> measurement("C1CCCN(NC2=NCCO2)CC1")
4.8
>>> measurement("Cc1cc(Cl)cc2c1NC(=O)C2(O)CC(=O)c1ccco1 (configuration not stated)")
-12.4
>>> measurement("Cc1ccc(C2OC(=O)C(=O)C2=O)cc1 (configuration not stated)")
-21.4
>>> measurement("CC(C)N1C(=O)c2ccccc2C1=O")
22.1

Asked: Could you tell me which growth inhibition is on file for CCOC(=O)c1c[nH]c2cc(Cl)ccc2c1=O ?
Given back: 30.5

* * *

experiment: NCI Yeast Anticancer Drug Screen. Data for the mec2-1 strain (AID 157); conditions: S. cerevisiae mec2-1 strain, at 50.0 µM, hits give high values
The panel holds about 79,000 compounds, 15% with a hit somewhere; the sample as a whole holds those more often.
quantity: growth inhibition (%)
Answer in %, number only, no unit symbol.

>>> measurement("c1ccc(C(c2ccccc2)c2ccccc2)cc1")
-20.4
>>> measurement("COc1cc2c(cc1OC)-c1ccc3cc4c(cc3c1N(C)C2)OCO4")
-36.6
>>> measurement("CCCCCCCCCCCCCCCC(=O)N(CCCC)CCCC")
5.7
>>> measurement("COc1cccc(N=Nc2c(-c3ccccc3)nn(C(=S)S)c2C)c1")
0.6
>>> measurement("c1ccc2c(c1)ccc1c3c(oc12)CCCC3")
-6.45

Asked: Could you tell me which growth inhibition is on file for c1csc(C2Nc3ccccc3N2)c1 ?
Given back: -4.1

Asked: Same read-out for CCc1ccc2[nH]nc(CCC(=O)O)c(=O)c2c1 ?
Given back: -4.7

Asked: Same read-out for Cc1nc2ccccc2c(=O)n1-c1ccc(-c2nnc(Sc3nnc(-c4ccc(-n5c(C)nc6ccccc6c5=O)cc4)n3-c3ccccc3)n2-c2ccccc2)cc1 ?
Given back: -3.35

Asked: Same read-out for FC(F)(F)c1ccc(C=NC23CC4CC(CC(C4)C2)C3)cc1 ?
Given back: -9

Asked: Same read-out for CO[C@H]1CC2CC1C1C3=C(NC21)C1(O)C[C@H]2CN(CC3)C1C[C@@H]2C(C)CO (stereo partly specified) ?
Given back: 9.9

Asked: Same read-out for Nc1nc(-c2ccccc2)nc2nc[nH]c12 ?
Given back: -3.9

* * *

test: NCI Yeast Anticancer Drug Screen. Data for the mec2-1 strain (AID 157); details: S. cerevisiae mec2-1 strain, at 50.0 µM, hits give high values
This is part of a sample that, as a whole, favours compounds with a hit. Of some 79,000 tested, about 15% had one in any assay.
Entries and their growth inhibition values follow.
Answer in %, number only, no unit symbol.

Would you please look over these solved cases?
>>> measurement("O=c1c2c(sc3ccccc13)CCC2")
18.6
>>> measurement("Cn1nc(-c2ccccc2)c(-c2cc(-c3ccccc3)n[nH]2)c(N)c1=O")
12.4
>>> measurement("C1CSCCSCCSCCS1")
-2.55
>>> measurement("CC(=O)Nc1cc2cc(NC=C(C#N)C#N)ccc2oc1=O")
-27.3
>>> measurement("C=C(CC(=O)NN)C(=O)NN")
12.3
>>> measurement("Nc1cccc(C(=O)Nc2ccc3c(O)cc(S(=O)(=O)O)cc3c2)c1")
-3.1

Asked: Could you tell me which growth inhibition is on file for Oc1ccc(C=NCCN=Cc2ccc(O)cc2)cc1 ?
Given back: -17.4

Asked: Same read-out for O=C(c1ccccc1)c1c(-c2ccccc2)sc2nc3ccccc3nc12 ?
Given back: 18.3

Asked: Same read-out for CCSc1nc(C)c(C)c(=O)[nH]1 ?
Given back: -10.9

* * *

Entries and their growth inhibition values follow.
assay: NCI Yeast Anticancer Drug Screen. Data for the mlh1 rad18 strain (AID 175); conditions: S. cerevisiae mlh1 rad18 strain growth inhibition; at 50.0 µM; hits give high values
Compounds without any hit were thinned out: in the full panel of roughly 79,000, 15% have a hit.
Answer in %, number only, no unit symbol.

>>> measurement("O=C1C2=C(OCCO2)C(=O)C2=C1OCO2")
4.4
>>> measurement("O=C(O)C#Cc1cccnc1")
-16.9

Asked: Could you tell me which growth inhibition is on file for O=C(O)CNC(=O)CNC(=O)c1ccc2ccccc2n1 ?
Given back: 15.9

Asked: Same read-out for COC(=O)C1C2C=CC(CC2)C1C(=O)OC (configuration not stated) ?
Given back: 7.95

Asked: Same read-out for CC(=O)OCC1OC(n2cnc3c(N)ncnc32)C2OC(C)(C)OC12 (configuration not stated) ?
Given back: -12.8

Asked: Same read-out for CCC(CCCCCc1ccccc1)(C(=O)O)C(=O)O ?
Given back: -2.95

Asked: Same read-out for O=c1c2c(oc3c(Cl)cc(Cl)cc13)CCCC2 ?
Given back: 4.05

* * *

Entries and their growth inhibition values follow.
assay: NCI Yeast Anticancer Drug Screen. Data for the rad50 strain (AID 155);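 note: 0% = growth of vehicle-only cultures of the same strain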; conditions: S. cerevisiae rad50 strain growth inhibition; at 50.0 µM; hits give high values
About 79,000 compounds went through this panel and 15% of them were active in at least one assay; those are over-represented in the sample as a whole.
Answer in %, number only, no unit symbol.

>>> measurement("COc1ccc(C2NCCCC2c2ccccc2)cc1 (centres undefined)")
-46.3
>>> measurement("COc1ccc(CCN2C(=O)C(=O)N(c3ccc([N+](=O)[O-])cc3)C2=O)cc1OC")
22.6
>>> measurement("CN(C)c1ccc(/C=c2\\[nH]c(=O)/c(=C\\c3ccc(N(C)C)cc3)[nH]c2=O)cc1")
4.3
>>> measurement("N/C(=N\\N=C\\C1CC2C=CC1C2)NO (centres undefined)")
5.3
>>> measurement("CCOC(=O)/C(C#N)=C(O)/C(=C\\c1ccc(Br)cc1)NC(=O)c1ccccc1")
-29.9
>>> measurement("O=C(O)/C=C/c1c(Cl)cccc1Cl")
-14.6
>>> measurement("O=S1(=O)C(c2ccccc2)C(N2CCCCC2)C1C1CC2c3ccccc3C1c1ccccc12 (centres undefined)")
19.5
>>> measurement("COC(=O)CC1=NNC(=O)C1")
-11.7

Asked: Could you tell me which growth inhibition is on file for CCOC(=O)/C=C/c1nc(C(=O)OCC)c(C)c(=O)[nH]1 ?
Given back: -0.55

Asked: Same read-out for CC(C)C1=CC(=O)C(C)(C2=NC(C)(C)CO2)c2ccccc21 (centres undefined) ?
Given back: -0.1

Asked: Same read-out for CN1C2CCC1C1N=NN(c3cc(C(F)(F)F)cc(C(F)(F)F)c3)C1(N1CCOCC1)C2 (centres undefined) ?
Given back: -20.9

Asked: Same read-out for O=C1c2cc(Cl)ccc2-c2ccc(N=Cc3ccccc3Cl)cc21 ?
Given back: 1.65

Asked: Same read-out for O=C(NC1C(=O)NNC1c1cccc([N+](=O)[O-])c1)c1ccccc1 (centres undefined) ?
Given back: -37.5

Asked: Same read-out for CC1=CCC(C(C)(C)NC(=O)c2ccccc2)C/C1=N/O (centres undefined) ?
Given back: -56.7

FYI, the data here is from PubChem BioAssay (NCI).
